molecular target: Muscarinic acetylcholine receptor M4 (Homo sapiens) (UniProt P08173); assay: M4-linked GIRK flux change, two-sided – cell-based, HEK293 M4/GIRK, thallium flux, BTC-AM, M4 allosteric agonist project, primary screen (AID 625); details: at 10 µM, actives lie on both sides;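 note: thallium influx through GIRK channels coupled to M4 in HEK293 cells with BTC-AM dye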
Sequence (P08173 whole entry, looked up): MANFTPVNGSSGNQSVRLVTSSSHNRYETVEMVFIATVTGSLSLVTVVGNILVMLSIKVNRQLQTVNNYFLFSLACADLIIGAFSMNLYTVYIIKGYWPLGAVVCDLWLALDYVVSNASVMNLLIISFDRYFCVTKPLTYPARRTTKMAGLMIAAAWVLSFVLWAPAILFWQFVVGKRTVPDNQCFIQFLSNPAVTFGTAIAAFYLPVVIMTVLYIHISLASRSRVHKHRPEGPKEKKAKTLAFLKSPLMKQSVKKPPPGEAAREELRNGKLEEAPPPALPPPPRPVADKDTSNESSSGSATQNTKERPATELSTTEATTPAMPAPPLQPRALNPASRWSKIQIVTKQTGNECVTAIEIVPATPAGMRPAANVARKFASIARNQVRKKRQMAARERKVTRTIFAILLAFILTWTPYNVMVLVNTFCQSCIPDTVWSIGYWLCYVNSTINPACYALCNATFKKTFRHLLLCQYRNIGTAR
Each entry gets condition not met if its fluorescence slope stays under 0.005, and condition met if its fluorescence slope is 0.005 or above.

Input: Form field: fluorescence slope at least 0.005? Entry: `O=C(O)c1c[nH]c2ccc(S(=O)(=O)N3CCN(c4ccc(F)cc4)CC3)cc2c1=O`
Output: condition not met

Input: Form field: fluorescence slope at least 0.005? Entry: O=C(NC1CCCCC1)C(c1ccco1)N(Cc1cccnc1)C(=O)C1COc2ccccc2O1 (stereo unspecified)
Output: condition not met

Input: Form field: fluorescence slope at least 0.005? Entry: `CCn1c(CC(=O)Nc2cccc(OC)c2)nnc1SCC(=O)Nc1nccs1`
Output: condition not met

Input: Form field: fluorescence slope at least 0.005? Entry: `O=S(=O)(CCOc1ccccc1)c1nc2ccccc2[nH]1`
Output: condition not met

Input: Form field: fluorescence slope at least 0.005? Entry: O=C1CC2CS(=O)(=O)CC2N1c1ccc(Oc2ccccc2)cc1 (stereo unspecified)
Output: condition met

Input: Form field: fluorescence slope at least 0.005? Entry: `O=c1c2ccccc2cnn1-c1nc2ccccc2s1`
Output: condition met

Input: Form field: fluorescence slope at least 0.005? Entry: `COC(=O)c1cc(OC)c(OC)cc1NC(=O)CC1CCCCC1`
Output: condition met

Input: Form field: fluorescence slope at least 0.005? Entry: `c1ccc(-c2n[nH]c3ccccc23)cc1`
Output: condition met

Input: Form field: fluorescence slope at least 0.005? Entry: `O=C(CSc1ncnc2ccccc12)N1CCN(c2ccccc2)CC1`
Output: condition met

Input: Form field: fluorescence slope at least 0.005? Entry: COc1ccc(N2CCN(C(c3cccc(OC)c3OC)c3nnnn3C3CCCC3)CC2)cc1 (stereo unspecified)
Output: condition not met

* * *

assay: endothelial E-selectin expression blockers – imaging, HUVEC, immunofluorescence, MLSMR starter and 10KST1 sets, primary screen (AID 487); details: HUVEC TNFalpha-induced E-selectin immunofluorescence imaging, at 2 µM; measured here: cell number, toxicity;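 note: 100% = median nuclei count of all wells on the same plate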
So I've got a bunch of compounds here, and I need their nuclei count values.
Respond numerically; units are % and should not be typed.

Input: Need nuclei count, item COc1ccc(C(=O)N2CCCC(c3ccccc3)C2)cc1 (stereo unspecified)
Output: 167

Input: Need nuclei count, item `N#Cc1c(NC(=O)CSc2nc(N)cc(=O)[nH]2)sc2c1CCCCCC2`
Output: 122

Input: Need nuclei count, item `CCOC(=O)c1cccc(NC(=O)CSc2nnc(-c3ccoc3C)n2CCOC)c1`
Output: 133

Input: Need nuclei count, item `Cc1ccc(S(=O)(=O)N(C)Cc2cc3ccccc3[nH]c2=O)cc1`
Output: 104

Input: Need nuclei count, item O=C(Nc1nc2ccc(S(=O)(=O)N3CCCC3)cc2s1)C1CCCO1 (stereo unspecified)
Output: 93.1

Input: Need nuclei count, item CCCS(=O)(=O)N1CCCC(C(=O)N2CCC(Cc3ccccc3)CC2)C1 (stereo unspecified)
Output: 106

Input: Need nuclei count, item Cc1ccc(-c2nnn(CC(=O)NC3CC4CCC3C4)n2)cc1 (stereo unspecified)
Output: 102

Input: Need nuclei count, item `CCc1nc2c(cnn2-c2ccc(Cl)cc2)c(=O)n1-c1ccc2c(c1)OCCO2`
Output: 122

Input: Need nuclei count, item `O=C(COc1ccc2c(c1)OCO2)NC12CC3CC(CC(C3)C1)C2`
Output: 99.1

Input: Need nuclei count, item `Cn1c(=O)cc(OCC(=O)N2CCN(c3cccc(C(F)(F)F)c3)CC2)c2ccccc21`
Output: 113

Input: Need nuclei count, item `COc1ccc(Cl)cc1C(=O)n1nc(C)cc1C`
Output: 118

* * *

assay: blockers of RIG-like receptor reporter activation – cell-based, Sendai virus stimulus, luciferase, 10K MLSCN set, TLR/RLR signaling modifier project, primary screen (AID 602276); conditions: HEK293 RL24 IRF3 luciferase reporter, at 10 µM, stronger effect = higher value;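 note: firefly luciferase from ISG56 promoter only with Renilla not read in this screen; 0% = Sendai virus plus DMSO and 100% = medium plus DMSO without virus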
So I've got a bunch of molecules here, and I need their inhibition values.
Respond numerically; units are % and should not be typed.

Input: Need inhibition, item `Cc1cc(NC(=O)CSc2nnc(C3CC3)n2C)no1`
Output: 8.69

Input: Need inhibition, item `CSc1cccc(NC(=O)C2CCN(S(C)(=O)=O)CC2)c1`
Output: 13.5

Input: Need inhibition, item `CCOC(=O)CSc1nc2cc(C(=O)NCc3ccco3)ccc2c(=O)n1-c1ccc(F)cc1`
Output: -7.4

Input: Need inhibition, item `Cc1noc(C)c1S(=O)(=O)N1CCC(C(=O)Nc2ccccn2)CC1`
Output: 13.8

Input: Need inhibition, item COc1ccccc1C(=O)N1CCCC(c2nc(-c3cc(OC)c(OC)c(OC)c3)no2)C1 (centres undefined)
Output: 12.4

Input: Need inhibition, item `C=CCNC(=O)CSc1ccc(Cl)cc1`
Output: 5.55

Input: Need inhibition, item CCCC(C)C1C(C#N)=C(N)Oc2cc(C)oc(=O)c21 (centres undefined)
Output: 18.1

Input: Need inhibition, item COc1ccc(CC(=O)OCc2nnc(C3COc4ccccc4O3)o2)cc1OC (centres undefined)
Output: 7.17

Input: Need inhibition, item `Nc1nonc1-c1noc(-c2ccccc2Br)n1`
Output: 5.89

Input: Need inhibition, item `S=c1[nH]nc(COc2ccccc2)n1C1CCCCC1`
Output: -4.8

Input: Need inhibition, item `O=C(Cn1c(SCC(=O)N2CCCc3ccccc32)nc2ccccc21)N1CCCC1`
Output: 1.52

Input: Need inhibition, item `COC(=O)c1cc(OC)c(OC)cc1NC(=O)CC1CCCCC1`
Output: 11.3

Input: Need inhibition, item `Cn1cnnc1SCC(=O)Nc1sc2c(c1C#N)CCCCC2`
Output: -24.5

Input: Need inhibition, item Cc1ccc(C2C(C#N)=C(N)Oc3cc4c(cc32)OCO4)cc1 (centres undefined)
Output: 24.6

Input: Need inhibition, item `O=C(Cc1ccsc1-c1ccccc1)NO`
Output: 17.8

Input: Need inhibition, item `O=C(CCn1c(=O)sc2ccccc21)NC1=NCCS1`
Output: -9.67

Input: Need inhibition, item `O=C(NCc1ccc(Cl)cc1)c1ccc(COCC(F)(F)F)o1`
Output: -1.43

Input: Need inhibition, item `CCOCCCNCC(=O)N1CCN(S(=O)(=O)c2ccc(C)cc2)CC1`
Output: 7.31

Input: Need inhibition, item CC(=O)C1=C(O)C(=O)N(Cc2ccco2)C1c1ccc2c(c1)OCO2 (centres undefined)
Output: 0.0775

Input: Need inhibition, item `Cc1ccc(F)cc1NC(=O)c1cccc2nccnc12`
Output: -11.7

Input: Need inhibition, item `COc1ccc(NC(=O)Nc2cc(C)ccc2OC)cc1`
Output: -39.1

Input: Need inhibition, item `Cc1c(Br)c(C(F)(F)F)nn1CC(=O)NCCN1CCOCC1`
Output: 1.54

Input: Need inhibition, item CCOC(=O)C1=C(c2ccccc2)Nc2nc(C)nn2C1c1cccc(OC)c1OC (centres undefined)
Output: 5.33

Input: Need inhibition, item `COc1cccc2cc(C(=O)Nc3cccnc3N3CCOCC3)c(=O)oc12`
Output: 10.7

* * *

experiment: inhibitors of TNFa-induced NFkB p65 translocation, primary screen, imaging, HUVEC, MLSMR starter and 10KST1 sets (AID 438); settings: HUVEC TNFa-induced p65 nuclear translocation; measured here: nuclei count (cytotoxicity indicator), at 2.08 µM;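 note: compound added about 3h40 before a 20 min TNFalpha stimulation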
So I've got a bunch of compounds here, and I need their cell count values.
Just the number, please.

Input: Need cell count, item `CCS(=O)(=O)N1CCC(C(=O)NCc2cccs2)CC1`
Output: 683

Input: Need cell count, item `Cn1c(=O)c2c(nc(NCCc3ccccc3)n2CC(=O)NCCc2ccccc2)n(C)c1=O`
Output: 339

Input: Need cell count, item `Cn1c(=O)c2c(nc(SCC(=O)O)n2Cc2cccc(C(F)(F)F)c2)n(C)c1=O`
Output: 204

Input: Need cell count, item `Clc1ccc(Cc2nn3c(-c4ccncc4)nnc3s2)cc1`
Output: 322

Input: Need cell count, item `COc1ccc(C2=Nn3c(nnc3-c3cccnc3)SC2)cc1`
Output: 367

Input: Need cell count, item `CCOc1ccc(OCC)c(NC(=O)C2CCN(S(=O)(=O)c3cnc[nH]3)CC2)c1`
Output: 377

Input: Need cell count, item `CCCc1nc2ccccc2c2nc(N)nn12`
Output: 435

Input: Need cell count, item `O=C(Cc1c(O)c2ccccc2[nH]c1=O)NCc1ccc(F)cc1`
Output: 251

Input: Need cell count, item `Cc1cc(SCC(N)=O)nc(SCC(=O)c2ccccc2)n1`
Output: 584

Input: Need cell count, item `O=C1CN=C(Nc2cccc(C(F)(F)F)c2)N1C1CCCC1`
Output: 421

Input: Need cell count, item `O=C(CCn1c(=O)oc2ccccc21)NCCN1CCc2ccccc2C1`
Output: 375
